experimentalProtocol: chemical genetic growth profiling, strain panel (AID 1159580);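 note: tested at 20 µM; growth read once vehicle control cultures reached saturation at 30 °C; 1 = growth at the plate median or of vehicle wells; lower values mean less growth of the strain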
testContext: S. cerevisiae deletion strains, growth OD, locus YKL048C, strain ELM1
The campaign covered roughly 5,500 compounds. About 2,000 (36%) were called active. Roughly 18% stayed inconclusive and do not appear here. Cut-off read from the data, not from the text of the source: active = normalized growth mostly below about 0.91 (no sharp cut-off); inconclusive = no clear call, values can overlap the other calls; inactive = mostly above about 0.92. The list shows a part of the results.
Allowed answers: label 1 (active), label 0 (inactive)

- FC(F)(F)c1c2c(nc3cc(-c4ccco4)nn13)CCC2: label 0

Please indicate how the test categorized O=C(Nc1cc(Cl)cc(Cl)c1)c1cc(Cl)ccc1O .
label 1

I'd appreciate the recorded outcome for S=C(NCc1cccs1)Nc1cc(Cl)cc(Cl)c1 from this test.
label 0
